experiment: Metabolic stability in alamethicin treated CD-1 mouse liver microsomes assessed as half life pretreated for 5 mins followed by NADPH addition and measured up to 45 mins by LC-MS/MS analysis
Assay type: ADME, Microsome
particulars: time < 50 min
metric name: half-life (min)

[in] # lookup: half-life of [2H]C([2H])([2H])c1nnn(C)c1-c1cnc2c3c(OC)cc(C(C)(C)O)cc3n([C@H](c3ccccc3)C3CCOCC3)c2c1
[out] 28

A. [2H]C([2H])([2H])c1nnn(C)c1-c1cnc2c3cc(Cl)c(C(C)(C)O)cc3n([C@H](c3ccccc3)C3CCOCC3)c2c1
B. COc1cc2c3ncc(-c4c(C)nnn4C)cc3n([C@H](c3ccccc3)C3CCOCC3)c2cc1C(C)(C)O
[in] Select one: A or B . Criterion: greater recorded half-life. Reply with the label of the item you choose.
[out] A

a. [2H]C([2H])([2H])c1nnn(C)c1-c1cnc2c3cc(F)c(C(C)(C)O)cc3n([C@H](c3ccccc3)C3CCOCC3)c2c1
b. [2H]C([2H])([2H])c1nnn(C)c1-c1cnc2c3ccc(C(C)(C)O)cc3n([C@H](c3ccccc3)C3CCOCC3)c2c1
[in] Hello, I am sorting some records. Could you say if a or b has the smaller half-life value? The response must carry the label of the picked entry.
[out] b

P. [2H]C([2H])([2H])c1nnn(C)c1-c1cnc2c3c(F)cc(C(C)(C)O)cc3n([C@H](c3ccccc3)C3CCOCC3)c2c1
Q. COC(C)(C)c1ccc2c3ncc(-c4c(C)nnn4C)cc3n([C@H](c3ccccc3)C3CCOCC3)c2c1
[in] # min-compare on half-life between P and Q // output: label of the selected item
[out] Q

====

experiment: AUC in dog at 0.3 mg/kg, po
Type: ADME, organism-based, Canis lupus familiaris
Design: dose 0.3 mg/kg, route po
particulars: in vivo
metric name: AUC (µM·h)

[in] # lookup: AUC of [2H]C([2H])([2H])c1nnn(C)c1-c1cnc2c3cc(F)c(C(C)(C)O)cc3n([C@H](c3ccccc3)C3CCOCC3)c2c1
[out] 0.55

[in] Consider the molecule Cc1nnn(C)c1-c1cnc2c3ccc(C(C)(C)O)cc3n([C@H](c3ccccc3)C3CCOCC3)c2c1 [EZOBRESIB] and give its measured AUC.
[out] 0.41

====

experiment: AUC in mouse at 5 mg/kg, po
Format: ADME, organism-based
Parameters: dose 5 mg/kg, route po
particulars: in vivo
metric name: AUC (µM·h)
Dear colleague, please return just the value in µM·h, with no unit written.

[in] Endpoint output: AUC of Cc1nnn(C)c1-c1cnc2c3ccc(C(C)(C)O)cc3n([C@H](c3ccccc3)C3CCOCC3)c2c1 . Value?
[out] 18

====

experiment: Efflux ratio of apparent permeability across […] in human Caco-2 cells after 2 hrs by liquid scintillation counting analysis
Type: ADME, cell-based
particulars: caco-2, 2 h
metric name: Ratio

Reference set, count: 2
[in] Quick check: Ratio of [2H]C([2H])([2H])c1nnn(C)c1-c1cnc2c3ccc(C(C)(C)O)cc3n([C@H](c3ccccc3)C3CCOCC3)c2c1 ?
[out] 6.1

[in] Look up Ratio for this compound: [2H]C([2H])([2H])c1nnn(C)c1-c1cnc2c3cc(F)c(C(C)(C)O)cc3n([C@H](c3ccccc3)C3CCOCC3)c2c1
[out] 1.8

I. [2H]C([2H])([2H])c1nnn(C)c1-c1cnc2c3cc(Cl)c(C(C)(C)O)cc3n([C@H](c3ccccc3)C3CCOCC3)c2c1
II. [2H]C([2H])([2H])c1nnn(C)c1-c1cnc2c3c(F)cc(C(C)(C)O)cc3n([C@H](c3ccccc3)C3CCOCC3)c2c1
[in] Pick one: I or II . Which has the bigger Ratio number? Returns: label corresponding to the selected item.
[out] II
